# reported Ratio; entries follow
system: Aβ40 (Homo sapiens, UniProt P05067)
Construct: Compounds Showing Activity Observed in a ThT Functional Aβ 1-40 Aggregation Assay
Sequence (P05067 672-711 limits assumed): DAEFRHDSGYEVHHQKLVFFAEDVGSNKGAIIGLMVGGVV
method: ThT functional Aβ 1-40 aggregation assay
Format: biochemical
conditions used: potency with respect to the compound of Example 7, 1=potency of that compound

Past entries and their recorded results:
smiles str	Ratio
CC(=O)Nc1cc([N+](=O)[O-])ccc1N1CCN(C(=O)c2ccccc2)CC1	0.04
O=C(c1ccccc1)N1CCN(c2cccc(Nc3ccccc3)c2)CC1	0.05
CN(C)c1ccc(N2CCN(C(=O)c3ccccc3)CC2)cc1N(C)c1ccccc1	0.25

Please fill in: Ratio reported for "Nc1ccc(-c2cccc(C(=O)O)c2)cc1Nc1ccccc1" = 2.5

Note to self: Ratio recorded for "Nc1cccc(N2CCN(C(=O)c3ccccc3)CC2)c1" was 0.05

According to the records, this compound "Nc1ccc(N2CCN(C(=O)c3ccccc3)CC2)cc1N(Cc1ccccc1)c1ccccc1" displays Ratio of 0.35

---

system: Aβ40 (Homo sapiens, UniProt P05067)
Construct: Compounds Showing Activity Observed in a ThT Functional Aβ 1-40 Aggregation Assay
method: ThT functional Aβ 1-40 aggregation assay
Type: biochemical
conditions used: 20 μM Aβ, 20 mM Tris pH 7.4, 150 mM NaCl, 1% DMSO, 37° C.
Recorded IC50 by entry
Quick note: give the figure in µM, leave out the unit.

molecule	system	IC50 / µM
O=C(O)c1ccccc1-c1ccc([N+](=O)[O-])c(NCc2ccccc2)c1	Aβ40 (Homo sapiens, UniProt P05067)	41.9
CCCNc1cc(N2CCN(C(=O)c3ccccc3)CC2)ccc1[N+](=O)[O-] [drawing 105]	Aβ40 (Homo sapiens, UniProt P05067)	2.5
O=C(c1ccccc1)N1CCN(c2cccc([N+](=O)[O-])c2)CC1 [drawing 151]	Aβ40 (Homo sapiens, UniProt P05067)	360

// next item, IC50 requested
"O=C(NCc1ccccc1)c1ccc(-c2ccc([N+](=O)[O-])c(NCc3ccccc3)c2)cc1" yielded IC50 of 42

---

Quick reference for IC50 among some molecules
system: alpha-synuclein (Homo sapiens, UniProt P37840)
method: alpha-synuclein aggregation inhibition (procedure similar to the ThT assay)
Format: biochemical
conditions used: inhibition of alpha-synuclein aggregation; read-out: A-syn (IC50/μM)
Form entry: value (µM) — number only.

# example entries with known answers
molecule	system	unit label	IC50
CN(C)c1cc([N+](=O)[O-])ccc1N1CCN(C(=O)c2ccccc2)CC1 [drawing 150]	alpha-synuclein (Homo sapiens, UniProt P37840)	µM	15
O=C(O)c1cccc(-c2ccc([N+](=O)[O-])c(NCc3ccccc3)c2)c1 [drawing 139]	alpha-synuclein (Homo sapiens, UniProt P37840)	µM	8
CCCNc1cc(N2CCN(C(=O)c3ccccc3)CC2)ccc1[N+](=O)[O-] [drawing 105]	alpha-synuclein (Homo sapiens, UniProt P37840)	µM	142

Now look at this entry.
Entry "Nc1ccc(-c2cccc(C(=O)O)c2)cc1Nc1ccccc1" , IC50 reported as 45

---

system: Aβ40 (Homo sapiens)
Construct: Compounds Showing Activity Observed in a ThT Functional Aβ 1-40 Aggregation Assay
method: ThT functional Aβ 1-40 aggregation assay
Type: biochemical
conditions used: potency with respect to the compound of Example 7, 1=potency of that compound
Answer Not satisfied if Ratio is under 0.1, and Satisfied if it is 0.1 or more.

-- ask Threshold query (Ratio >= 0.1) on "Nc1ccc(N2CCN(C(=O)c3ccccc3)CC2)cc1Nc1ccccc1"
-- reply Satisfied

-- ask Entry "O=C(O)c1ccccc1-c1ccc([N+](=O)[O-])c(NCc2ccccc2)c1" : is its Ratio no less than 0.1?
-- reply Satisfied

-- ask Kindly determine if Ratio recorded for CCCNc1cc(N2CCN(C(=O)c3ccccc3)CC2)ccc1[N+](=O)[O-] [drawing 105] is above or exactly 0.1.
-- reply Satisfied

-- ask Entry "CN(C)c1ccc([N+](=O)[O-])c(Nc2ccccc2)c1" : is its Ratio no less than 0.1?
-- reply Satisfied

-- ask Would you say "O=C(O)c1ccc(-c2ccc([N+](=O)[O-])c(NCc3ccccc3)c2)cc1" shows Ratio at minimum 0.1?
-- reply Not satisfied

-- ask For this compound, is measured Ratio 0.1 or higher? "COC(=O)c1ccc(N2CCN(C(=O)c3ccccc3)CC2)cc1NCc1ccccc1"
-- reply Satisfied

-- ask Reported Ratio at or above 0.1? "CCNC(=O)c1ccc(N2CCN(C(=O)c3ccccc3)CC2)cc1NCc1ccccc1"
-- reply Satisfied

-- ask Please tell me: is the compound "O=[N+]([O-])c1ccccc1NCc1ccccc1" at or over 0.1 in terms of Ratio?
-- reply Satisfied

These measurements were taken from patent US8420640B2.
